experiment: BET inhibitor-based combinations targeting novel dependencies in MECOM-rearranged (r) AML: MV-4-11 cell line (AID 2202233); settings: MV-4-11 AML viability, CellTiter-Glo luminescence, 48 h; series mostly up to 46 µM; note: nearly all actives have a fitted effect of over 45% in size
Inconclusive results are not listed. Calls of active or inactive are those of the source. Calls come from the whole dose curve; as a rule, active = well fitted inhibition curve with a large enough effect; inconclusive = small, poorly fitted or top-dose-only effect; inactive = no such curve, though single readings can be large or run the other way.
Permitted responses: active, inactive

These recorded examples may help you get a feel for the data.
| compound | class-label |
| --- | --- |
| Cc1ccc2nc(NCCN)c3ncc(C)n3c2c1 | active |
| O=c1cc(O)c(Cl)c[nH]1 | inactive |
| CC1(C)S[C@H]2[C@H](NC(=O)[C@@H](N)c3ccc(O)cc3)C(=O)N2[C@H]1C(=O)O | inactive |
| O=c1c(-c2ccc(O)cc2)coc2c([C@@H]3O[C@H](CO)[C@@H](O)[C@H](O)[C@H]3O)c(O)ccc12 | inactive |
| C[C@@H](Oc1ccc2[nH]nc(/C=C/c3cnn(CCO)c3)c2c1)c1c(Cl)cncc1Cl | active |
| CN(C)c1ccc(O)c2c1C[C@H]1C[C@H]3[C@H](N(C)C)C(=O)C(C(N)=O)=C(O)[C@@]3(O)C(=O)C1=C2O | inactive |
| CCCS(=O)(=O)c1nc(NC2CC2)cc(-c2ccc3c(ccn3C3CC(C)(C)NC(C)(C)C3)c2)n1 | active |
| CCN1CCN(Cc2ccc(NC(=O)c3ccc(C)c(/C=C/c4cnc5[nH]ccc5c4OC)c3)cc2C(F)(F)F)CC1 | active |

Could you kindly confirm the outcome this assay logged for COCCOC(=O)N1CCN(S(=O)(=O)c2cc(F)c(Oc3ccc(Cl)cc3)c(F)c2)C(C(=O)NO)C1 (stereo unspecified) ?
active

Could you kindly confirm the outcome this assay logged for "NC(=O)c1nc(F)c[nH]c1=O" ?
inactive

Could you kindly confirm the outcome this assay logged for "Cn1cc(-c2nc(N[C@@H]3CCCC[C@@H]3N)c(F)c3c2C(=O)NC3)cn1" ?
active

Could you kindly confirm the outcome this assay logged for "Cc1ccc(NC(=O)Nc2nnc(Sc3ncnc4cc(OCCCN5CCOCC5)ccc34)s2)cc1" ?
active

Could you kindly confirm the outcome this assay logged for "COC(=O)N[C@@H](C)CNc1nccc(-c2cn(C(C)C)nc2-c2cc(Cl)cc(NS(C)(=O)=O)c2F)n1" ?
active

----------
test: BET inhibitor-based combinations targeting novel dependencies in MECOM-rearranged (r) AML: UCSD-AML1 cell line (AID 2202235); settings: UCSD-AML1 AML cells viability, CellTiter-Glo, 48 h; series mostly up to 46 µM; note: nearly all actives have a fitted effect of over 40% in size; note: potency is the fitted concentration of half-maximal effect
Results filed as inconclusive are left out. Calls of active or inactive are those of the source. The call rests on the fitted dose curve; in most records, active means well fitted inhibition curve with a large enough effect; inconclusive means small, poorly fitted or top-dose-only effect; inactive means no such curve, though single readings can be large or run the other way.
recorded-metric: Potency

| molecule | Potency |
| --- | --- |
| C=CC[C@@H]1/C=C(\C)C[C@H](C)C[C@H](OC)[C@H]2O[C@@](O)(C(=O)C(=O)N3CCCC[C@H]3C(=O)O[C@H](/C(C)=C/[C@@H]3CC[C@@H](O)[C@H](OC)C3)[C@H](C)[C@@H](O)CC1=O)[C@H](C)C[C@@H]2OC | 26.3 µM (active) |

Turning to the following compound.
Entry under review: "O=C(Nc1cn[nH]c1-c1nc2ccc(CN3CCOCC3)cc2[nH]1)NC1CC1" . Reported Potency?
0.118 µM (active)

----------
assay: qHTS for Inhibitors of the Aldehyde Dehydrogenase Family (ALDH1A2, ALDH1A3, ALDH2, ALDH3A1) (AID 2061307); settings: ALDH inhibition qHTS; series mostly up to 50.3 µM; note: nearly all actives have a fitted effect of over 50% in size; for Potency: test system not described further here; potency is the fitted concentration of half-maximal effect
Records with an inconclusive call do not appear. Activity calls are given as the source filed them. Calls come from the whole dose curve; as a rule, active = well fitted inhibition curve with a large enough effect; inconclusive = small, poorly fitted or top-dose-only effect; inactive = no such curve, though single readings can be large or run the other way.
recorded-metric: Potency

Recorded Potency, per entry:
| compound | Potency |
| --- | --- |
| Nc1ccccc1OC1=NS(=O)(=O)c2ccccc21 | inactive |
| O=C(Nc1ccn[nH]1)c1ccn(-c2cccc(F)c2)n1 | inactive |
| Cc1ccccc1C(=O)n1ccc2cc(-c3cccc(NC(=O)Cc4ccccc4)n3)cnc21 | inactive |
| Cc1ccc(OCCn2c(CCNC(=O)c3ccccc3N)nc3ccccc32)cc1 | 1.13 µM (active) |
| COc1ccc(C2Nc3ccccc3C(=O)N2Cc2ccc(-c3ccccc3)cc2)cc1COc1ccc(NC(C)=O)cc1 (stereo not given) | 1.79 µM (active) |

Lab note: each compound below needs its Potency filled in.
1. COc1ccc(C2Nc3ccccc3C(=O)N2Cc2ccccc2C)cc1COc1ccc(NC(C)=O)cc1 (stereo not given)
2. CC/C=C\C/C=C\C/C=C\C/C=C\C/C=C\C/C=C\CCC(=O)NCCN(C)C

1.79 µM (active)
inactive

----------
assay: BET inhibitor-based combinations targeting novel dependencies in MECOM-rearranged (r) AML: AML-194 cell line (AID 2202237; note: nearly all actives have a fitted effect of over 40% in size; note: potency is the fitted concentration of half-maximal effect); details: AML-194 (MECOM-r AML) viability, CellTiter-Glo, 48 h; series mostly up to 46 µM
Records with an inconclusive call do not appear. Active and inactive are the calls of the source. The call rests on the fitted dose curve; in most records, active means well fitted inhibition curve with a large enough effect; inconclusive means small, poorly fitted or top-dose-only effect; inactive means flat fitted curve, though single readings scatter.
recorded-metric: Potency

Recorded Potency, per entry:
| compound | Potency |
| --- | --- |
| CCn1c(N)c(C(=O)NC)c(=O)c2ccc(C#CC(C)(O)COC)nc21 (configuration not stated) | inactive |
| C[C@H]1[C@H](C)CC[C@]2(C(=O)O)CC[C@]3(C)C(=CC[C@@H]4[C@@]5(C)CC[C@H](O)C(C)(C)[C@@H]5CC[C@]43C)[C@H]12 | inactive |
| CC(C)c1ccc(Cn2ccc3c4c(N)nc(NC5CC5)nc4ccc32)cc1 | 1.48 µM (active) |
| C=C1CCC2[C@](C)(CO)C(O)CC[C@]2(C)C1C/C=C1/C(=O)OCC1O (some centres not stated) | 9.34 µM (active) |
| O=S(=O)(Nc1ccc(-c2cccnc2)c2cccnc12)c1cccc(C(F)(F)F)c1 | 7.42 µM (active) |

Lab note: each compound below needs its Potency filled in.
1. N#Cc1ccc(N(Cc2ccc(Br)cc2)n2cnnc2)cc1
2. C[C@H](O)[C@@H]1C(=O)N2C(C(=O)O)=C(S[C@@H]3CN[C@H](CNS(N)(=O)=O)C3)[C@@H](C)[C@@H]12
3. COC[C@@H](c1ccc(C(F)(F)F)cc1)N1CCN(C2(C)CCN(C(=O)c3c(C)ncnc3C)CC2)C[C@@H]1C
4. COc1cccc2c1C(=O)c1c(O)c3c(c(O)c1C2=O)C[C@@](O)(/C(CO)=N/NC(=O)CCCCCN1C(=O)C=CC1=O)C[C@@H]3O[C@H]1C[C@H](N)[C@H](O)[C@H](C)O1
5. CC1(C)O[C@@H]2C[C@H]3[C@@H]4C[C@H](F)C5=CC(=O)C=C[C@]5(C)[C@H]4[C@@H](O)C[C@]3(C)[C@]2(C(=O)CO)O1
6. CN(C(=O)c1c(O)c2ccccc2n(C)c1=O)c1ccccc1
7. CN1CCN(c2cccc(Nc3nc4c(-c5ccc(S(C)(=O)=O)cc5)cccn4n3)c2)CC1
8. C[C@H](NC(=O)c1c(N)nn2cccnc12)c1cc2cccc(C#Cc3cnn(C)c3)c2c(=O)n1-c1ccccc1

1. inactive
2. inactive
3. inactive
4. 0.934 µM (active)
5. inactive
6. inactive
7. 13.2 µM (active)
8. 7.23 µM (active)

----------
assay: BET inhibitor-based combinations targeting novel dependencies in MECOM-rearranged (r) AML: SET-2 cell line (AID 2202231); settings: SET-2 AML cells viability, CellTiter-Glo luminescence, 48 h; note: potency is the fitted concentration of half-maximal effect; nearly all actives have a fitted effect of over 35% in size
Results filed as inconclusive are left out. Calls of active or inactive are those of the source. Calls follow the shape of the dose curve; as a rule, active = well fitted inhibition curve with a large enough effect; inconclusive = small, poorly fitted or top-dose-only effect; inactive = no such curve, though single readings can be large or run the other way.
recorded-metric: Potency

| molecule | Potency |
| --- | --- |
| NC(=O)/C(=C/n1cnc(-c2cc(C(F)(F)F)cc(C(F)(F)F)c2)n1)c1cncnc1 | 0.59 µM (active) |
| Nc1nccc2c1ncn2[C@@H]1C=C(CO)[C@@H](O)[C@H]1O | 0.525 µM (active) |
| C=C1C(=O)O[C@@H]2[C@H]3C(C)=CC[C@@]34O[C@@]4(C)CC[C@@H]12 | 9.34 µM (active) |
| Cc1ccc(C(=O)N(CCCN)[C@@H](c2oc3cc(Cl)ccc3c(=O)c2Cc2ccccc2)C(C)C)cc1 | 0.166 µM (active) |

Turning to the following compound.
Entry under review: "Nc1nc(F)nc2c1ncn2[C@@H]1O[C@H](COP(=O)(O)O)[C@@H](O)[C@@H]1O" . Reported Potency?
3.72 µM (active)

----------
test: BET inhibitor-based combinations targeting novel dependencies in MECOM-rearranged (r) AML: UCSD-AML1 cell line (AID 2202235); settings: UCSD-AML1 AML cells viability, CellTiter-Glo, 48 h; series mostly up to 46 µM; note: nearly all actives have a fitted effect of over 40% in size
Records with an inconclusive call do not appear. The source made the active and inactive calls. The call rests on the fitted dose curve; in most records, active means well fitted inhibition curve with a large enough effect; inconclusive means small, poorly fitted or top-dose-only effect; inactive means no such curve, though single readings can be large or run the other way.
Permitted responses: true (1) = active, false (0) = inactive

These recorded examples may help you get a feel for the data.
| molecule | class-label |
| --- | --- |
| CCN[C@H]1C[C@H](C)S(=O)(=O)c2sc(S(N)(=O)=O)cc21 | false (0) |
| Nc1nc(-c2nn(Cc3ccccc3F)c3ncccc23)ncc1C1CC1 | true (1) |
| CNC(=O)c1ccc(N2C(=S)N(c3ccc(C#N)c(C(F)(F)F)c3)C(=O)C2(C)C)cc1F | false (0) |
| CNCc1ccc(-c2cc(-c3nc(-c4ccc(S(=O)(=O)C(C)C)cc4)cnc3N)on2)cc1 | true (1) |
| COc1ccc(Cl)cc1-c1cc(=O)[nH]c(=S)n1CC(N)=O | false (0) |

Turning to the following molecule.
Could you kindly confirm the outcome this assay logged for "Nc1cc(COc2c(Cl)cc(C[C@H](N)C(=O)O)cc2Cl)c2oc(-c3ccccc3)nc2c1" ?
false (0)
